Test protocol: acute toxicity (iv) in mice
Condition notes: mouse, in vivo, iv
Recorded metric: LD50 (mg/kg)
Field: numeric (mg/kg). Do not append units.

Asked: Sample CCCCC[C@H](O)/C=C/[C@@H]1CCC(=O)[C@H]1SCCCCCC(=O)OC [No. 89] — what was its LD50?
Given back: 20

###

Test protocol: acute toxicity (iv) in mice
Condition notes: mouse, in vivo; male; iv, mice; read-out: acute toxicity LD50
Recorded metric: LD50 (mg/kg)
Use mg/kg as the unit, but write only the number.

Asked: Need LD50 of CCCCC[C@H](O)/C=C/[C@@H]1[C@@H](C/C=C\CCCC(=O)O)[C@@H](O)C[C@H]1O [PGF2α, reference compound] , thanks.
Given back: 60

###

Test protocol: acute toxicity (iv) in mice
Condition notes: mouse, in vivo; acute toxicity (iv) in mice; read-out: LD50
Recorded metric: LD50 (mg/kg)
Write the answer as a number in mg/kg, unit excluded.

Asked: Fill in the blank: the reported LD50 of CCCCCC(C)(O)CS[C@H]1C(=O)CC[C@@H]1SCCCCCC(=O)O (stereo partly shown) is ____.
Given back: 350

###

Test protocol: acute toxicity (iv) in mice
Condition notes: mouse, in vivo, iv, female; iv, mice; read-out: acute toxicity LD50
Recorded metric: LD50 (mg/kg)
Give just the number in mg/kg; leave the unit off.

Asked: Which LD50 reading was recorded for the compound CCCCC[C@H](O)/C=C/[C@@H]1[C@@H](C/C=C\CCCC(=O)O)[C@@H](O)C[C@H]1O [PGF2α, reference compound] ?
Given back: 56
